Species on record: Rattus norvegicus
Assay: Open TG-GATES - Regimen: Daily Repeat
Assay type: toxicity, organism-based, Sprague-Dawley
Design: regimen Daily Repeat, gender Male, age 6 weeks
Conditions: in vivo, po, 0 mg/kg, […], tissue Kidney, route gavage, dose level Control, time 28 day
value.type: KIDNEY_R (g)
Report the figure in g without appending any unit label.

Some solved entries appear below for comparison.
# compound, value.type, readout.unit, assay.result
measured = [
    ("O=c1ccc2ccccc2o1", "KIDNEY_R", "g", 1.4),
    ("CC(S)C(=O)NCC(=O)O (stereo not given)", "KIDNEY_R", "g", 1.4),
    ("CCO", "KIDNEY_R", "g", 1.3),
    ("Nc1ccc(Cc2ccc(N)cc2)cc1", "KIDNEY_R", "g", 1.4),
]

For the next question, use this compound.
In: # query: KIDNEY_R of entry CCCCNC(=O)NS(=O)(=O)c1ccc(C)cc1 [TOLBUTAMIDE]
Out: 1.5

---

Species on record: Rattus norvegicus
Assay: Open TG-GATES - Regimen: Daily Repeat
Assay type: toxicity, organism-based, Sprague-Dawley
Parameters: regimen Daily Repeat, gender Male, age 6 weeks
Conditions: in vivo, po, 1000 mg/kg, 72 h, tissue Blood, route gavage, dose level High, time 3 day
value.type: Ret (%)
Just the number in %, nothing appended.

In: # lookup: Ret of O=C(O)c1ccccc1Nc1ccccc1 [FENAMIC ACID]
Out: 5.7

---

Organism: Rattus norvegicus
Experiment: Open TG-GATES - Regimen: Daily Repeat
Type: toxicity, organism-based, Sprague-Dawley
Design: regimen Daily Repeat, gender Male, age 6 weeks
Settings: in vivo, po, 0 mg/kg, […], tissue Plasma, route gavage, dose level Control, time 14 day
Given measured TC, output Y if it is greater than or equal to 70 mg/dL and N if not.

Solved cases (3 shown):
# compound, category
rows = [
    ("CCN(CC)C(=S)SSC(=S)N(CC)CC", "Y"),
    ("CN(CCOc1ccc(CC2SC(=O)NC2=O)cc1)c1ccccn1.O=C(O)/C=C\\C(=O)O (configuration not stated) [ROSIGLITAZONE MALEATE]", "Y"),
    ("CCCCC1C(=O)N(c2ccccc2)N(c2ccccc2)C1=O", "Y"),
]

# evaluate next
In: API: above_or_equal(metric=TC, cutoff=70 mg/dL) for item CC(S)C(=O)NCC(=O)O (configuration not stated)
Out: N

---

Overview of reported RBC across a group of molecules:
Organism: Rattus norvegicus
Assay: Open TG-GATES - Regimen: Daily Repeat
Format: toxicity, organism-based, Sprague-Dawley
Design: regimen Daily Repeat, gender Male, age 6 weeks
Conditions: in vivo, po, 100 mg/kg, 72 h, tissue Blood, route gavage, dose level Low, time 3 day
Value and unit, in that order.

# molecule, assay.result
measured = [
    ("CCCCNC(=O)NS(=O)(=O)c1ccc(C)cc1 [TOLBUTAMIDE]", "680.4 x10_4/ul"),
    ("CC(=O)[C@@]1(O)CC[C@H]2[C@@H]3C=C(Cl)C4=CC(=O)CC[C@]4(C)[C@H]3CC[C@@]21C [CHLORMADINONE]", "702.6 x10_4/ul"),
    ("CC(S)C(=O)NCC(=O)O (centres undefined) [TIOPRONIN]", "652 x10_4/ul"),
]

Now examine the next entry.
In: Which RBC is reported for this molecule? O=C(O)c1ccccc1Nc1ccccc1 [FENAMIC ACID]
Out: 647.6 x10_4/ul

Ref: ChEMBL document CHEMBL3885861
